# Subject Of Test: Amine oxidase [flavin-containing] A (Homo sapiens)
# Sequence (P21397 whole entry): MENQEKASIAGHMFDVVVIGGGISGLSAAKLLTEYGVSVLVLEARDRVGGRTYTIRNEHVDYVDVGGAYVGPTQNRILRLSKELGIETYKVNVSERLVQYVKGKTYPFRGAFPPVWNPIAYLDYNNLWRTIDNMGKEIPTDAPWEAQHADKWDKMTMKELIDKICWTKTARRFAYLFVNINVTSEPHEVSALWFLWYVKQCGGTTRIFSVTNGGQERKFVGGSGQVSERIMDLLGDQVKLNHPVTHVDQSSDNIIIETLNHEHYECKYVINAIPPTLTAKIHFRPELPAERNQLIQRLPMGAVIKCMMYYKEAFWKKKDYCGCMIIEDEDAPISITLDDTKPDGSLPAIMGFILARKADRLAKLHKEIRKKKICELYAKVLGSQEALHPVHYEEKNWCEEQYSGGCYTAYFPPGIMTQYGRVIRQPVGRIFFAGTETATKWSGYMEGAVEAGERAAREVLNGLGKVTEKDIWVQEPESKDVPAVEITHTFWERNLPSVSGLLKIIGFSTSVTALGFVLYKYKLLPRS
# Method Description: Inhibition of human recombinant MAO-A using kynuramine as substrate preincubated with compound for 15 mins measured after 20 mins by fluorometric analysis
Observed Property: IC50 (nM)
One number for each entry, in nM.

1. O=C1NC(=S)N/C1=C\c1c[nH]c2cccc(Br)c12; 267

Hi, could you look up IC50 for each item in my list?
1. CSC1=NC(=O)/C(=C/c2c[nH]c3ccc(Br)cc23)N1
2. CN1C(=N)N/C(=C\c2c[nH]c3ccccc23)C1=O
3. CN1C(=N)NC(=O)/C1=C\c1c[nH]c2ccccc12
4. C/N=C1\NC(=O)/C(=C\c2c[nH]c3cccc(Br)c23)N1C
5. CN1C(=N)N/C(=C\c2c[nH]c3c(Br)cccc23)C1=O
6. N=C1NC(=O)/C(=C/c2c[nH]c3cc(Br)ccc23)N1
7. O=C1NC(=S)N/C1=C\c1c[nH]c2c(Br)cccc12

stdout:
[7130, 1970, 12200, 2580, 1200, 3680, 543]

---

# Subject Of Test: Amine oxidase [flavin-containing] B (Homo sapiens, UniProt P27338)
# Method Description: Inhibition of human recombinant MAO-B using kynuramine as substrate preincubated with compound for 15 mins measured after 20 mins by fluorometric analysis
Observed Property: log10 IC50 (log10 of the value in µM)
A difference of one corresponds to tenfold IC50; all values are log10 with IC50 in µM.

Reference set (10 entries):
1. C/N=C1\NC(=O)/C(=C/c2c[nH]c3c(Br)cccc23)N1; 1.41
2. CN1C(=N)N/C(=C\c2c[nH]c3ccc(Br)cc23)C1=O; 0.63
3. CN1C(=N)NC(=O)/C1=C\c1c[nH]c2cc(Br)ccc12; 1.55
4. C/N=C1\N(C)C(=O)/C(=C\c2c[nH]c3cc(Br)ccc23)N1C; -0.68
5. O=C1NC(=S)N/C1=C\c1c[nH]c2cccc(Br)c12; -0.35
6. C/N=C1\NC(=O)/C(=C/c2c[nH]c3cc(Br)ccc23)N1; 1.32
7. CN1C(=N)N/C(=C\c2c[nH]c3cc(Br)ccc23)C1=O; 0.58
8. O=C1NC(=S)N/C1=C\c1c[nH]c2ccccc12; 1.39
9. CSC1=NC(=O)/C(=C/c2c[nH]c3cccc(Br)c23)N1; 0.57
10. C/N=C1/N/C(=C\c2c[nH]c3ccc(Br)cc23)C(=O)N1C; 1.23

Hi, could you look up log10 IC50 for each item in my list?
1. C/N=C1\N(C)C(=O)/C(=C\c2c[nH]c3ccc(Br)cc23)N1C
2. C/N=C1/N/C(=C\c2c[nH]c3c(Br)cccc23)C(=O)N1C
3. CN1C(=N)N(C)/C(=C/c2c[nH]c3ccc(Br)cc23)C1=O
4. C/N=C1\NC(=O)/C(=C/c2c[nH]c3cccc(Br)c23)N1
5. CN1C(=N)N(C)/C(=C/c2c[nH]c3c(Br)cccc23)C1=O
6. CSC1=N/C(=C\c2c[nH]c3ccccc23)C(=O)N1
7. CN1C(=N)N(C)/C(=C/c2c[nH]c3cccc(Br)c23)C1=O

stdout:
[-0.43, 0.63, 0.43, 0.85, 0.49, 1.77, 1.71]

Hi, could you look up log10 IC50 for each item in my list?
1. CSC1=NC(=O)/C(=C/c2c[nH]c3c(Br)cccc23)N1
2. C/N=C1/N/C(=C\c2c[nH]c3ccccc23)C(=O)N1C
3. CN1C(=N)NC(=O)/C1=C\c1c[nH]c2c(Br)cccc12
4. C/N=C1\NC(=O)/C(=C\c2c[nH]c3ccccc23)N1C [ISOPLYSIN A]
5. CN1C(=N)N/C(=C\c2c[nH]c3c(Br)cccc23)C1=O

stdout:
0.39
1.48
1.54
1.53
1.16

---

# Subject Of Test: UniProt P27338
# Sequence (P27338 whole entry): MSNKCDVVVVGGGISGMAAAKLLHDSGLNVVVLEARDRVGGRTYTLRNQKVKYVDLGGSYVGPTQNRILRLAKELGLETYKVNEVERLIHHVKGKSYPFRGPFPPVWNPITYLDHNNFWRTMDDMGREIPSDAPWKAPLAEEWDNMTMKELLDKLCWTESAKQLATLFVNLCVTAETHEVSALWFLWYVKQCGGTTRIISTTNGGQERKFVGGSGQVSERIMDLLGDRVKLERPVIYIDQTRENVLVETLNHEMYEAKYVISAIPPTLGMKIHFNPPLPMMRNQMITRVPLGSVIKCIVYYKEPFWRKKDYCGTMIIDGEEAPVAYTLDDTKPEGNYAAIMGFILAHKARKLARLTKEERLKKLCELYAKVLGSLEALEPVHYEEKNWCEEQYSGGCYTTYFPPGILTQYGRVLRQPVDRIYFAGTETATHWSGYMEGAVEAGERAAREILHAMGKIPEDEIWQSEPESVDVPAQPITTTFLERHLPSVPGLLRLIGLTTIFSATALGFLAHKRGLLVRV
# Method Description: Inhibition of human recombinant MAO-B using kynuramine as substrate preincubated with compound for 15 mins measured after 20 mins by fluorometric analysis
Observed Property: pIC50
Give bare numbers, as −log10 of the molar value.

Reference set (8 entries):
1. CSC1=NC(=O)/C(=C/c2c[nH]c3ccc(Br)cc23)N1; 5.06
2. CN1C(=N)N/C(=C\c2c[nH]c3cccc(Br)c23)C1=O; 4.43
3. C/N=C1\NC(=O)/C(=C\c2c[nH]c3cc(Br)ccc23)N1C; 5.57
4. N=C1NC(=O)/C(=C/c2c[nH]c3cc(Br)ccc23)N1; 4.60
5. C/N=C1/N/C(=C\c2c[nH]c3cc(Br)ccc23)C(=O)N1C; 4.59
6. C/N=C1\N(C)C(=O)/C(=C\c2c[nH]c3cccc(Br)c23)N1C; 5.28
7. N=C1NC(=O)/C(=C/c2c[nH]c3c(Br)cccc23)N1; 4.56
8. C/N=C1\NC(=O)/C(=C\c2c[nH]c3cccc(Br)c23)N1C; 4.58

Hi, could you look up pIC50 for each item in my list?
1. O=C1NC(=S)N/C1=C\c1c[nH]c2cc(Br)ccc12
2. N=C1NC(=O)/C(=C/c2c[nH]c3ccccc23)N1
3. CN1C(=N)NC(=O)/C1=C\c1c[nH]c2ccccc12

stdout:
1: 5.59; 2: 4.48; 3: 4.36

---

# Species: Homo sapiens
# Method Description: Selectivity ratio of IC50 for human recombinant MAO-B to IC50 for human recombinant MAO-A
Task for the reader: assign each of the following compounds its reported Ratio IC50.
Answers are plain numbers.

1. CN1C(=N)N/C(=C\c2c[nH]c3ccccc23)C1=O; 17.5
2. C/N=C1\NC(=O)/C(=C/c2c[nH]c3c(Br)cccc23)N1; 6.66
3. C/N=C1\NC(=O)/C(=C/c2c[nH]c3cc(Br)ccc23)N1; 4.66
4. CN1C(=N)N(C)/C(=C/c2c[nH]c3cccc(Br)c23)C1=O; 24.8
5. C/N=C1\N(C)C(=O)/C(=C\c2c[nH]c3cc(Br)ccc23)N1C; 11.2

Hi, could you look up Ratio IC50 for each item in my list?
1. CN1C(=N)N/C(=C\c2c[nH]c3cccc(Br)c23)C1=O
2. C/N=C1\NC(=O)/C(=C\c2c[nH]c3cc(Br)ccc23)N1C
3. CN1C(=N)N/C(=C\c2c[nH]c3cc(Br)ccc23)C1=O
4. C/N=C1/N/C(=C\c2c[nH]c3c(Br)cccc23)C(=O)N1C
5. C/N=C1\NC(=O)/C(=C\c2c[nH]c3ccccc23)N1C [ISOPLYSIN A]
6. CN1C(=N)NC(=O)/C1=C\c1c[nH]c2ccc(Br)cc12

stdout:
[24.4, 92, 23, 3.94, 11, 3.06]

Hi, could you look up Ratio IC50 for each item in my list?
1. CSC1=N/C(=C\c2c[nH]c3ccccc23)C(=O)N1
2. C/N=C1/N/C(=C\c2c[nH]c3ccccc23)C(=O)N1C
3. C/N=C1/N/C(=C\c2c[nH]c3cc(Br)ccc23)C(=O)N1C
4. O=C1NC(=S)N/C1=C\c1c[nH]c2ccccc12
5. C/N=C1\N(C)C(=O)/C(=C\c2c[nH]c3c(Br)cccc23)N1C
6. C/N=C1\NC(=O)/C(=C/c2c[nH]c3ccccc23)N1
7. C/N=C1\NC(=O)/C(=C\c2c[nH]c3ccc(Br)cc23)N1C
8. N=C1NC(=O)/C(=C/c2c[nH]c3c(Br)cccc23)N1

stdout:
21.3
5.24
22.9
1.69
18.4
0.45
44.2
5.04

Hi, could you look up Ratio IC50 for each item in my list?
1. C/N=C1\NC(=O)/C(=C\c2c[nH]c3cccc(Br)c23)N1C
2. O=C1NC(=S)N/C1=C\c1c[nH]c2cc(Br)ccc12
3. CN1C(=N)NC(=O)/C1=C\c1c[nH]c2ccccc12
4. N=C1NC(=O)/C(=C/c2c[nH]c3ccccc23)N1
5. C/N=C1\NC(=O)/C(=C/c2c[nH]c3cccc(Br)c23)N1

stdout:
10.2
1.67
3.55
2.59
3.9
